Ref: patent US9855268B2

Target Of Assay: UniProt:Q9P2K8
Test: GCN2 enzyme assay (TR-FRET Lanthascreen, GFP-eIF2alpha phosphorylation)
Format: biochemical
Test Parameters: 10 μM ATP, 80 nM GFP-eIF2a, 30 nM GCN2
Sequence (Q9P2K8 whole entry, species assumed): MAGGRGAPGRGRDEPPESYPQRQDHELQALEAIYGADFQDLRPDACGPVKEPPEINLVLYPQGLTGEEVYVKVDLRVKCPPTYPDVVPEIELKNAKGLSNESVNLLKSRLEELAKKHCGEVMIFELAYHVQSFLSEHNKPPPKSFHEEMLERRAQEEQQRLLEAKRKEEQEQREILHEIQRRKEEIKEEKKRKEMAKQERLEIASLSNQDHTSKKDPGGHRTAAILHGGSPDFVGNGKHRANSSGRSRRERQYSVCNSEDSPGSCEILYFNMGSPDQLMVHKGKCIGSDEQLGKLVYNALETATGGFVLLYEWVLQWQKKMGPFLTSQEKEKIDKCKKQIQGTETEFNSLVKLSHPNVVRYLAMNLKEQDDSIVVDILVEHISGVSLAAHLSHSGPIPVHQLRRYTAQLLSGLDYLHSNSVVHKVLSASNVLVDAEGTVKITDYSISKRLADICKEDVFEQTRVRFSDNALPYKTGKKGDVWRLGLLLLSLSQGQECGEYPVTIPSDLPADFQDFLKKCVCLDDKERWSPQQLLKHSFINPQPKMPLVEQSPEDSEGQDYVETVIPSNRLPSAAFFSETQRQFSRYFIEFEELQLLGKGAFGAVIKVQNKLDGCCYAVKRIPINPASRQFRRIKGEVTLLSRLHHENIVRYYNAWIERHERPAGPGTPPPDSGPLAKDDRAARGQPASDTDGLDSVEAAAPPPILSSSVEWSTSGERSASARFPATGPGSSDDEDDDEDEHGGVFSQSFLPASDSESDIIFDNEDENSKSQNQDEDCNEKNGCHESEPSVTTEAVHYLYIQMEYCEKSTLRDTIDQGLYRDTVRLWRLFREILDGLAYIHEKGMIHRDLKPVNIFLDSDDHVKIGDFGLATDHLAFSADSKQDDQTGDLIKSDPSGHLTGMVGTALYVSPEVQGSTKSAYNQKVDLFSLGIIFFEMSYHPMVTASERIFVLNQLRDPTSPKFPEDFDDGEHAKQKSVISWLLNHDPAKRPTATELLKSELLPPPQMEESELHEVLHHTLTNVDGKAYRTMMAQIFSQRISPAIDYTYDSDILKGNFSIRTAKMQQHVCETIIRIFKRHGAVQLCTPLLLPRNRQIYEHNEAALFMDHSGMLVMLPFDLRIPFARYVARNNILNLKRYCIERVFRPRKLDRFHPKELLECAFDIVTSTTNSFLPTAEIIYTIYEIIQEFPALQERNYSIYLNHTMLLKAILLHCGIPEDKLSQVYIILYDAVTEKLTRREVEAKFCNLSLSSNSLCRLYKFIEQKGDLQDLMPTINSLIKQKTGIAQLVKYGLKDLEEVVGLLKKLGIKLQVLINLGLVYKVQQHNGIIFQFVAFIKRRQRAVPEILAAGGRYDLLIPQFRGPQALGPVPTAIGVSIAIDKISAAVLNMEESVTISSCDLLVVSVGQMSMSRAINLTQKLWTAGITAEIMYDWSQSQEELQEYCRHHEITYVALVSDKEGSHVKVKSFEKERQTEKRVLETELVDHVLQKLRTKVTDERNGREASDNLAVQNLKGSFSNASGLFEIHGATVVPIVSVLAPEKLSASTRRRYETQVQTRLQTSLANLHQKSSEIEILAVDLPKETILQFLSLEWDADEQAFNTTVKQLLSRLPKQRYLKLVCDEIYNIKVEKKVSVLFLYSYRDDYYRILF
pIC50: −log10 of the molar value.

- Molecule: "COc1ccc(-n2nnc3cnc(N[C@H]4CC[C@@H](O)C4)nc32)cc1 (relative stereo)"
  pIC50: "5.30 to 6.00"
- Molecule: "COc1ccc(-n2nnc3cnc(N[C@H]4CC[C@H](S(C)(=O)=O)C4)nc32)cc1 (relative stereo)"
  pIC50: "> 6.00"
- Molecule: "O[C@@H]1CC[C@@H](Nc2ncc3nnn(-c4ccc5ncccc5c4)c3n2)C1"
  pIC50: "> 6.00"
- Molecule: "COc1ccc(-n2nnc3cnc(N[C@@H]4CC[C@H](C(=O)N5CCN(C)CC5)C4)nc32)cc1"
  pIC50: "> 6.00"
- Molecule: "Cn1cc(-c2ccc(-n3nnc4cnc(N[C@@H]5CC[C@H](N)C5)nc43)cc2)cn1"
  pIC50: "> 6.00"
- Molecule: "CCOCCn1cc(-c2ccc(-n3nnc4cnc(N[C@@H]5CC[C@@H](N)C5)nc43)cc2)cn1"
  pIC50: "> 6.00"
- Molecule: "COc1ccc(-n2nnc3cnc(NC4CCNC(=O)C4)nc32)cc1 (centres unmarked)"
  pIC50: "5.30 to 6.00"
- Molecule: "COCCOc1ccc(-n2nnc3cnc(N[C@@H]4CC[C@H](C(N)=O)C4)nc32)cc1"
  pIC50: "> 6.00"

----------
Target Of Assay: GCN2 (Homo sapiens)
Test: Cellular assay of GCN2 activity (phospho-eIF2alpha immunocytochemistry after tryptophanol)
Type: cell-based
Set-up: endogenous in cells; host or cells: U2OS
Test Parameters: Human U2OS cells, 2 h compound, 600 μM tryptophanol 30 min
Sequence (Q9P2K8 whole entry): as the sequence (Q9P2K8 whole entry, species assumed) above
pIC50: −log10 of the molar value.
Listing of recorded pIC50 by entry.
Quantity Kind: pIC50

- Compound: "N[C@H]1CC[C@H](Nc2ncc3nnn(-c4ccc(N5CC[C@H](O)C5)cc4)c3n2)CC1"
  Quantity Kind: "pIC50"
  Observed Result: "5.00 to 5.30"
- Compound: "Cn1cc(-c2ccc(-n3nnc4cnc(N[C@H]5CC[C@H](O)C5)nc43)cc2)cn1 (relative stereo)"
  Quantity Kind: "pIC50"
  Observed Result: "5.30 to 6.00"
- Compound: "CCOCCn1cc(-c2ccc(-n3nnc4cnc(N[C@@H]5CC[C@@H](C(=O)NCCO)C5)nc43)cc2)cn1"
  Quantity Kind: "pIC50"
  Observed Result: "5.30 to 6.00"
- Compound: "NC(=O)[C@@H]1CC[C@@H](Nc2ncc3nnn(-c4ccc(OC5CCOCC5)cc4)c3n2)C1"
  Quantity Kind: "pIC50"
  Observed Result: "5.30 to 6.00"

----------
Target Of Assay: UniProtKB Q9P2K8
Test: GCN2 enzyme assay (TR-FRET Lanthascreen, GFP-eIF2alpha phosphorylation)
Format: biochemical
Test Parameters: 10 μM ATP, 80 nM GFP-eIF2a, 30 nM GCN2
Description: GCN2: Assay Principle & Conditions This assay can quantificate the activity of the serin kinase GCN2 (general control non-derepressible-2). This kinase is involved in the stress metabolism of cells. […] The enzymatic reaction is stopped by addition of EDTA. The amount of phosphorylated eIF2alpha is determined by TR-FRET (Lanthascreen): A complex is formed consisting of antibody and GFP labelled phospho-eIF2a, which allows a FRET upon exitation at 340 nm. […]
Structures can show the parent of a compound that is named as a salt.
Quantity Kind: IC50

- Compound: "NC(=O)[C@@H]1CC[C@@H](Nc2ncc3nnn(-c4ccc(N5CCOCC5)c(F)c4)c3n2)C1"
  Quantity Kind: "IC50"
  Observed Result: "< 1 µM"
- Compound: "COc1ccc(-n2nnc3cnc(NC4CC4)nc32)cc1"
  Quantity Kind: "IC50"
  Observed Result: "< 1 µM"
- Compound: "NC(=O)[C@@H]1CC[C@@H](Nc2ncc3nnn(-c4ccc(-c5cnn(CCn6ncccc6=O)c5)cc4)c3n2)C1"
  Quantity Kind: "IC50"
  Observed Result: "< 1 µM"
- Compound: "NC(=O)[C@@H]1CC[C@@H](Nc2ncc3nnn(-c4ccc(OCCn5cccn5)cc4)c3n2)C1"
  Quantity Kind: "IC50"
  Observed Result: "< 1 µM"
- Compound: "NC(=O)[C@@H]1CC[C@@H](Nc2ncc3nnn(-c4ccc(N5CCOCC5=O)c(F)c4)c3n2)C1"
  Quantity Kind: "IC50"
  Observed Result: "< 1 µM"
- Compound: "COc1ccc(-n2nnc3cnc(N[C@H]4CCN(C(=O)CN(C)C)C4)nc32)cc1 [A91, formate]"
  Quantity Kind: "IC50"
  Observed Result: "1 to 5 µM"
- Compound: "Cc1nc2cc(-n3nnc4cnc(N[C@@H]5CC[C@@H](C(N)=O)C5)nc43)ccc2n1C"
  Quantity Kind: "IC50"
  Observed Result: "< 1 µM"
- Compound: "COCCOc1ccc(-n2nnc3cnc(NCCCc4ccccn4)nc32)cc1"
  Quantity Kind: "IC50"
  Observed Result: "< 1 µM"
- Compound: "COc1ccc(-n2nnc3cnc(NC4C5CN(C)CC54)nc32)cc1 (stereo not drawn)"
  Quantity Kind: "IC50"
  Observed Result: "5 to 10 µM"
